// data source = the RNAGym collection of RNA variant scans (doi:10.1073/pnas.2313332121)

We begin with a simple list: items and their reported polymerase ribozyme fitness (log ratio).
B1: TPR t1 (parent)
chain: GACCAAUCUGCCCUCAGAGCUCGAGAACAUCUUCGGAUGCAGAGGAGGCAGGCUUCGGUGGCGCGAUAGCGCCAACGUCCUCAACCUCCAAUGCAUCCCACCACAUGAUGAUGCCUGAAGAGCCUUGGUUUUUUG

Variants of: B1
Assay: polymerase ribozyme fitness, log enrichment relative to wild type (log ratio); higher = more active; in vitro selection for triplet polymerase activity
The response must contain the number and no unit.

Previously resolved entries follow.
>>> observed_result("C34U C56U")
-4.1
>>> observed_result("C13G U21A G52C A91C G120C")
-3.21
>>> observed_result("C70G A111G G135U")
-4.58
>>> observed_result("C4A C15G")
-4.24

Looking for the measured polymerase ribozyme fitness (log ratio) of A29G G61U C85A C102U , can you help? -5.28

Looking for the measured polymerase ribozyme fitness (log ratio) of G47U A91C G113A U130A , can you help? -3.79

Looking for the measured polymerase ribozyme fitness (log ratio) of A2C C49A G93U G110A , can you help? -4.44

Looking for the measured polymerase ribozyme fitness (log ratio) of C11U G42C G63C U130G , can you help? -3.61

Looking for the measured polymerase ribozyme fitness (log ratio) of U7A A66U C98U , can you help? -1.89

Looking for the measured polymerase ribozyme fitness (log ratio) of U87C G110U , can you help? -0.496
